- EXPERIMENTAL_TARGET: BlaC (Mycobacterium tuberculosis)
- Construct: made in house; host or cells: E. coli
- METHOD: BlaC fluorogenic inhibition assay with FC5 (dose-response)
- Format: biochemical
- ASSAY_CONTEXT: Table S4 HTS validation; 30 minutes inhibitor pre-incubation; n=8; read-out: pIC50 BlaC (mean ± SD) (converted)
Entries annotated with measured IC50
Number only, in nM; omit the unit.

Here is how some molecules turned out for IC50.
- MOLECULE: "O=c1c2ccccc2[se]n1-c1ccccc1 [Ebselen]"
  IC50 [nM]: 302
- MOLECULE: "C[C@@H](O)[C@H]1C(=O)N2C(C(=O)O)=C(S[C@@H]3CN[C@H](CNS(N)(=O)=O)C3)[C@H](C)[C@H]12 [Doripenem, reference compound]"
  IC50 [nM]: 14.1

Any idea what IC50 was measured for Cc1onc(-c2ccccc2)c1C(=O)N[C@@H]1C(=O)N2[C@@H]1SC(C)(C)[C@@H]2C(=O)O [Oxacillin, reference compound] ?
67.6

###

- EXPERIMENTAL_TARGET: UniProtKB I6Y9J2
- METHOD: biochemical
- Assay type: biochemical
- Design: made in house; host or cells: E. coli
- ASSAY_CONTEXT: Table S4 HTS validation; 30 minutes inhibitor pre-incubation; n=6; read-out: pIC50 LdtMt2 (mean ± SD) (converted)
# strict inequality: IC50 < 1 µM yields yes, everything else yields no

Dear colleague, could you confirm whether IC50 of O=c1c2ccccc2[se]n1-c1ccccc1 [Ebselen] falls below 1 µM? Thanks.
yes

Dear colleague, could you confirm whether IC50 of CN(C)C(=S)SSC(=S)N(C)C [Thiram, reference compound] falls below 1 µM? Thanks.
yes

Dear colleague, could you confirm whether IC50 of C[C@@H](O)[C@H]1C(=O)N2C(C(=O)O)=C(S[C@@H]3CN[C@H](C(=O)Nc4cccc(C(=O)O)c4)C3)[C@H](C)[C@H]12 [Ertapenem, reference compound] falls below 1 µM? Thanks.
yes

###

- EXPERIMENTAL_TARGET: LdtMt2 (Mycobacterium tuberculosis, UniProt I6Y9J2)
- Sequence (I6Y9J2 56-408): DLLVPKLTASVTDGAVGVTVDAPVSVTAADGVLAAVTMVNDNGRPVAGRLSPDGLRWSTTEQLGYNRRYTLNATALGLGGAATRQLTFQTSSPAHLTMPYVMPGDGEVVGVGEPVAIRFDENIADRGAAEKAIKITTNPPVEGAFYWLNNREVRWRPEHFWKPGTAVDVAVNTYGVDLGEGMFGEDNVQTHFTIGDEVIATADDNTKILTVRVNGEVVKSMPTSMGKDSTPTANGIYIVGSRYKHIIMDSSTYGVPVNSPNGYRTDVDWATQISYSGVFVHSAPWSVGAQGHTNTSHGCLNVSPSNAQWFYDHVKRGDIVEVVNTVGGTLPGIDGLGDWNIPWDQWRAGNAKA
- METHOD: Rate constant of covalent target inactivation (kinact/KI), endpoint competition assay with probe 2
- Type: biochemical
- Set-up: made in house; host or cells: E. coli
Entries annotated with measured log10 of kinact/KI
Use the decimal logarithm of kinact/KI (M⁻¹ s⁻¹).

Any idea what log10 of kinact/KI was measured for CS(=O)(=O)c1ccc(F)c(N2C(=O)C=CC2=O)c1 ?
1.56

Any idea what log10 of kinact/KI was measured for O=C1C=CC(=O)N1c1ccccc1 ?
3.60

Any idea what log10 of kinact/KI was measured for N#Cn1c(-c2ccc(F)cc2C(F)(F)F)nc2ccccc21 ?
1.74

Any idea what log10 of kinact/KI was measured for COc1cccc(NC(=O)/C(Cl)=C(\Cl)S(=O)(=O)Cc2ccccc2Cl)n1 ?
1.96

Any idea what log10 of kinact/KI was measured for CCC(C)C(NC(=O)OCc1ccccc1)C(=O)CCl (centres unmarked) ?
1.84

###

- EXPERIMENTAL_TARGET: BlaC (Mycobacterium tuberculosis, UniProt P9WKD3)
- Construct: made in house; host or cells: E. coli
- Sequence (P9WKD3 35-307): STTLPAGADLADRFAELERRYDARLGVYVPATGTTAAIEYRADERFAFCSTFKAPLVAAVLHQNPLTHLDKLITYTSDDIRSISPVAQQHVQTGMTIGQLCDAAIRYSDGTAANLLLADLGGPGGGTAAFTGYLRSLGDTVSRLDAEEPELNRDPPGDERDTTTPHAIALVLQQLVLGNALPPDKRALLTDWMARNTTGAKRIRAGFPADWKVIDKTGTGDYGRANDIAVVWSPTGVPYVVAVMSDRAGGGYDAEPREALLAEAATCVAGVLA
- METHOD: BlaC fluorogenic inhibition assay with FC5 (dose-response)
- Type: biochemical
- ASSAY_CONTEXT: Table S4 HTS validation; 30 minutes inhibitor pre-incubation; n=8; read-out: pIC50 BlaC (mean ± SD) (converted)
Entries annotated with measured IC50
Reply with a number, then the unit it belongs to.

Here is how some molecules turned out for IC50.
- MOLECULE: "CC(=N)N1CC[C@H](SC2=C(C(=O)O)N3C(=O)[C@H]([C@@H](C)O)[C@H]3C2)C1 [Panipenem, reference compound]"
  IC50: "93.3 nM"
- MOLECULE: "CC(C)(O/N=C(\\C(=O)N[C@@H]1C(=O)N2C(C(=O)[O-])=C(C[n+]3ccccc3)CS[C@H]12)c1csc(N)n1)C(=O)O"
  IC50: "12000 nM"

Moving on to the next molecule.
Any idea what IC50 was measured for Cc1onc(-c2c(F)cccc2Cl)c1C(=O)N[C@@H]1C(=O)N2[C@@H]1SC(C)(C)[C@@H]2C(=O)O [Flucloxacillin, reference compound] ?
77.6 nM

###

- EXPERIMENTAL_TARGET: UniProt I6Y9J2
- METHOD: biochemical
- Assay type: binding
- Set-up: made in house; host or cells: E. coli
- ASSAY_CONTEXT: pH 7.5; in °C (unit assumed)
Entries annotated with measured Tm: melting point of LdtMt2 after pre-incubation with the compound
Enter the number alone.

- MOLECULE: "COc1ccc(COC(=O)C2N3C(=O)C(Br)C3S(=O)(=O)C2(C)C)cc1 (stereo not shown) [Compound 21]"
  MEASURED_VALUE: 43.1
- MOLECULE: "N#Cn1c(-c2ccncc2)nc2ccc(C(=O)c3ccccc3)cc21 [Compound 36]"
  MEASURED_VALUE: 40.8
- MOLECULE: "N#Cn1c(-c2ccncc2)nc2ccc(-c3ccco3)cc21 [Compound 33]"
  MEASURED_VALUE: 43.3

Any idea what Tm: melting point of LdtMt2 after pre-incubation with the compound was measured for N#Cn1c(N2CCSCC2)nc2ccccc21 [Compound 27] ?
42.5

Any idea what Tm: melting point of LdtMt2 after pre-incubation with the compound was measured for N#Cn1c(-c2ccncc2)nc2ccc(-c3cccnc3)cc21 [Compound 35] ?
42.9

Any idea what Tm: melting point of LdtMt2 after pre-incubation with the compound was measured for O=C1C(=O)N(Cc2cccc3ccccc23)c2ccc(Br)cc21 [Compound 18] ?
46.2

Any idea what Tm: melting point of LdtMt2 after pre-incubation with the compound was measured for N#Cn1c(-c2cc(F)cc(C(F)(F)F)c2)nc2ccccc21 [Compound 23] ?
42.5

Any idea what Tm: melting point of LdtMt2 after pre-incubation with the compound was measured for CC(N)C(=O)NC1CCN(c2ccc(N3CCCC3)cc2C#N)C1 (stereo not shown) [Compound 39] ?
43.1

Any idea what Tm: melting point of LdtMt2 after pre-incubation with the compound was measured for N#Cn1c(-c2ccc3nccnc3c2)nc2ccccc21 [Compound 26] ?
41.7

Any idea what Tm: melting point of LdtMt2 after pre-incubation with the compound was measured for Cc1nc(-c2ccc(-c3nc4ccccc4n3C#N)cc2)cs1 [Compound 30] ?
42.2

###

- EXPERIMENTAL_TARGET: LdtMt2 (Mycobacterium tuberculosis)
- METHOD: biochemical
- Assay type: binding
- Design: made in house; host or cells: E. coli
- ASSAY_CONTEXT: pH 7.5; in °C (unit assumed)
MEASUREMENT_LABEL: Tm: melting point of LdtMt2 after pre-incubation with the compound
Enter the number alone.

Here is how some compounds turned out for Tm: melting point of LdtMt2 after pre-incubation with the compound.
- COMPOUND: "N#CN1CCCN1C(=O)OCc1ccc(Cl)c(Cl)c1"
  MEASURED_VALUE: 42.3
- COMPOUND: "NC(=O)OCC1=C(C(=O)O)N2C(=O)C(NC(=O)C(=CS(=O)(=O)CCc3ccc(O)c(O)c3)c3csc(N)n3)C2SC1 (stereo not shown)"
  MEASURED_VALUE: 42.7
- COMPOUND: "N#Cn1c(-c2ccnnc2)nc2ccccc21"
  MEASURED_VALUE: 42.0

Any idea what Tm: melting point of LdtMt2 after pre-incubation with the compound was measured for COc1ccc(CN2C(=O)C(=O)c3cc(Br)cc(C)c32)cc1OC ?
46.8

Any idea what Tm: melting point of LdtMt2 after pre-incubation with the compound was measured for Cc1ccc(C=CC(=O)Nc2ccccc2C(N)=O)o1 ?
44.0

Any idea what Tm: melting point of LdtMt2 after pre-incubation with the compound was measured for N#Cn1c(N2CCOCC2)nc2ccccc21 ?
42.3

Any idea what Tm: melting point of LdtMt2 after pre-incubation with the compound was measured for Cc1ccccc1NC(=O)C=CC(N)=O ?
44.9

###

Entries annotated with measured ΔTm at 500 µM
- EXPERIMENTAL_TARGET: LdtMt2 (Mycobacterium tuberculosis, UniProt I6Y9J2)
- METHOD: biochemical
- Assay type: binding
- Set-up: made in house; host or cells: E. coli
- ASSAY_CONTEXT: read-out: ΔTm: difference in melting point of LdtMt2 relative to unreacted LdtMt2 (43.8 °C)
- Method: LdtMt2 (5 μM) was incubated with the inhibitor (500 μM) in assay buffer (50 mM tris pH 7.5) for 30 minutes at room temperature in 96-well white PCR plates (25 μL final volume, Starlab). […] Fluorescence was monitored (with λex = 492 nm and λem = 610 nm) using a CFX96 Touch Real-Time PCR Detection System (Bio-Rad), while the temperature was increased from 20 to 95 °C in increments of 0.2 °C. Melting temperatures (Tms) were determined using the CFX Maestro Software (Bio-Rad).

Here is how some molecules turned out for ΔTm at 500 µM.
- MOLECULE: "NC(=O)C=CC(=O)Nc1ccc(Cl)cc1 [Compound 13]"
  MEASURED_VALUE: "1 °C"
- MOLECULE: "O=C1C=CC(=O)N1c1ccccc1 [Compound 3]"
  MEASURED_VALUE: "1.2 °C"
- MOLECULE: "CS(=O)(=O)c1ccc(F)c(N2C(=O)C=CC2=O)c1 [Compound 4]"
  MEASURED_VALUE: "1.8 °C"

Any idea what ΔTm at 500 µM was measured for N#Cn1c(-c2ccc(F)cc2C(F)(F)F)nc2ccccc21 [Compound 22] ?
-1.3 °C

Any idea what ΔTm at 500 µM was measured for N#Cn1c(-c2cnc(-c3cccs3)nc2)nc2ccccc21 [Compound 31] ?
-1.7 °C

Any idea what ΔTm at 500 µM was measured for COc1cccc(NC(=O)/C(Cl)=C(\Cl)S(=O)(=O)Cc2ccccc2Cl)n1 [Compound 8] ?
0.7 °C

Any idea what ΔTm at 500 µM was measured for CCC(C)C(NC(=O)OCc1ccccc1)C(=O)CCl (stereo not shown) [Compound 2] ?
-0.1 °C

Any idea what ΔTm at 500 µM was measured for CCOc1ccc(CN2C(=O)C(=O)c3cc(Br)cc(C)c32)cc1OC [Compound 16] ?
3 °C

Any idea what ΔTm at 500 µM was measured for O=c1c2cc(Cl)c(Cl)cc2sn1CCO [Compound 15] ?
-0.3 °C

Any idea what ΔTm at 500 µM was measured for Cn1c(SCC2=C(C(=O)O)N3C(=O)[C@@H](NC(=O)COc4ccccc4)[C@H]3SC2)n[nH]c1=O [Compound 19] ?
-0.9 °C
